TEST_DESCRIPTION: Mouse plasma protein binding
Assay type: in vitro ADME
OBSERVABLE: fraction unbound

(I) O=c1c(-c2ccc(O)cc2)coc2c(O)c(O)ccc12 [Compound 12, 7,8,4′-trihydroxyisoflavone]
(II) COc1cc(O)cc(CCc2ccccc2O)c1 [Compound 9]
Q: Quick check, higher fraction unbound between I and II ? Provide the label of your selected option as the answer.
A: I

* * *

MEASURED_TARGET: recombinant human LTA4H (aminopeptidase, PGP substrate) (Homo sapiens, UniProt P09960)
Construct: purchased Cayman Chemicals
Sequence (P09960 1-611): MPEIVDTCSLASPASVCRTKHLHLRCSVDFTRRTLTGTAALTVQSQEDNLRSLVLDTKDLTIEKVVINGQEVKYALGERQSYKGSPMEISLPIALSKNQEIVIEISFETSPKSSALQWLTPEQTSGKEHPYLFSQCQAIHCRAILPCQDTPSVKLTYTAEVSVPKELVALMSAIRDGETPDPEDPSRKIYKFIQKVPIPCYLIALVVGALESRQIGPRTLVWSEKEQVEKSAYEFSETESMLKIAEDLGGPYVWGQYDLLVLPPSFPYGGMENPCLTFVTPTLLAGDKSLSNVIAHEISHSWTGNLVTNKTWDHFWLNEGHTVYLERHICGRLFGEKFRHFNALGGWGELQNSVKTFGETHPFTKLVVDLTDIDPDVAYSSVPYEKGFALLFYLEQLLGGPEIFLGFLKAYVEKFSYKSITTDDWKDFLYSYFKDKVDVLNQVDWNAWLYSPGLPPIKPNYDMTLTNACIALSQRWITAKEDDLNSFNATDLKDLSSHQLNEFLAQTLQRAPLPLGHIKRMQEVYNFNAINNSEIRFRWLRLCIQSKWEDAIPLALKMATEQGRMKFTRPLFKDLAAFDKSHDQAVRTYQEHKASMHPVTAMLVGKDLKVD
TEST_DESCRIPTION: LTA4H aminopeptidase activity: PGP degradation by recombinant human LTA4H
Assay type: biochemical
OBSERVABLE: IC50 (µM)
Note: unit µM is implicit; provide only the numeric part.

{"columns": ["COMPOUND", "UNIT_OF_MEASUREMENT", "IC50"],
 "data": [
  ["COc1cc(O)cc(/C=C/c2ccc(O)cc2)c1", "µM", 99.5]
]}

Could you now consider this next compound?
What the record says about CC(=O)NC1CC2CCC(C1)N2Cc1ccc(Oc2nc3ncccc3s2)cc1 (centres unmarked) : IC50 is 0.0094
